Assay: Cmax in human at 7.5 to 100 mg after 1 to 2.5 hrs
Assay type: ADME
Conditions: in vivo
Value kind: Cmax

INSERT INTO measurements (smiles_notation, endpoint_value) VALUES
  ('CCC(=O)c1sc(-c2ccc(Cl)cc2)c(C)c1-c1ccc(S(N)(=O)=O)cc1', '25.1 to 1620 ng/mL');

====

Listed next: entries and their corresponding AUC(0-t) at 144 h.
Experiment: AUC (0 to 144 hrs) in Wistar rat at 1 mg/kg, iv after 0.083 to 144 hrs by LC-MS/MS analysis
Type: ADME, organism-based
Set-up: time < 144 hr, dose 1 mg/kg, route intravenous
Conditions: in vivo
Value kind: AUC(0-t) at 144 h (µM·h)

INSERT INTO assay_data (smiles_notation, endpoint_value) VALUES
  ('CCC(=O)c1sc(-c2ccc(OC)cc2)c(C)c1-c1ccc(S(N)(=O)=O)cc1', 1.3),
  ('CCC(=O)c1sc(-c2ccc(Cl)cc2)c(C)c1-c1ccc(S(N)(=O)=O)cc1', 27);
